target: LNX1_1, Q8TBB1; assay: holdup assay; set-up: key: below the threshold = too weak to quantify, mostly under pKd 3.1 to 4; details: plain residues with an end cap or a label only (N-terminal biotin on a linker: ado-ado)
Sequence (Q8TBB1 261-371): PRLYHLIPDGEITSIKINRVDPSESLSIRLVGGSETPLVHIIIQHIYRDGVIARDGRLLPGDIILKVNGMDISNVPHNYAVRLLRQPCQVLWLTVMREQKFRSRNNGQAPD
READOUT: pKd

| BINDER | VALUE |
| --- | --- |
| SAKVRTVTSV [RASL11B, Q9BPW5] | 4.04 |
| PDGQCTVTEV [RNF146, Q9NTX7] | 4.12 |
| QSARLWETSI [ADAM22, Q9P0K1] | 4.43 |
| FNSYSLTGYV [CLDN2, P57739] | 3.94 |
